All values here come from ChEMBL document CHEMBL1141402.

measurement-target: Delta-type opioid receptor (Mus musculus)
Sequence (P32300 whole entry): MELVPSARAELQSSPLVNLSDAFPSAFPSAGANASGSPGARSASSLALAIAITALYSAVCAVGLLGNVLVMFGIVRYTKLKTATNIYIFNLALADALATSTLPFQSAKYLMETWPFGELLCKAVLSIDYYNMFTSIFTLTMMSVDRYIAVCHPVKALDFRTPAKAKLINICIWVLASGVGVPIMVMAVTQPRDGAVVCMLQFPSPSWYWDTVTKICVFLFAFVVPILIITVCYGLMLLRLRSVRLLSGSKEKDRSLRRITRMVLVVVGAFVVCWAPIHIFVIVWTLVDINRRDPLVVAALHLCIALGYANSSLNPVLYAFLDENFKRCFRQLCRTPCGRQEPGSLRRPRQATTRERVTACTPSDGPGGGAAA
assay-details: Agonist activity at delta opioid receptor by inhibition of electrically evoked muscle contraction in isolated mouse vas deferens
measured-quantity: IC50

Problem: What does the data say about its IC50? Entry: NC(=O)[C@@H](Cc1cccc2ccccc12)NC(=O)[C@H](Cc1ccccc1)NC(=O)[C@@H]1CCCN1C(=O)[C@@H](N)Cc1ccc(O)cc1
Result: > 10 µM

---

measurement-target: Delta-type opioid receptor (Homo sapiens, UniProt P41143)
Sequence (P41143 whole entry): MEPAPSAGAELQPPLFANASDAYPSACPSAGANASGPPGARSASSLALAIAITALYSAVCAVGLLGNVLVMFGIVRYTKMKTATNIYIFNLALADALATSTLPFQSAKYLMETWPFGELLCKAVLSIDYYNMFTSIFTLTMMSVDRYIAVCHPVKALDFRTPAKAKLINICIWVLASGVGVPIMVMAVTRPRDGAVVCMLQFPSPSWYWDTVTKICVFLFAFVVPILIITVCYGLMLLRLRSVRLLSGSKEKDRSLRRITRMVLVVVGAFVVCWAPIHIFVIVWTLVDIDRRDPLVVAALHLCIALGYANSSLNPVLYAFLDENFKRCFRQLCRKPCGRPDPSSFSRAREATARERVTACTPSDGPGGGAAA
assay-details: Activity at delta opioid receptor assessed as increase in calcium level in CHO cells by aequorin luminescence based calcium assay
Residues, ends and D or L forms follow the SMILES beside them.
measured-quantity: pEC50
Give bare numbers, as −log10 of the molar value.

[
  {
    "molecule": "Cc1cc(O)cc(C)c1C[C@H](N)C(=O)N1CCC[C@H]1C(=O)N[C@@H](Cc1ccccc1)C(=O)N[C@H](Cc1ccc2ccccc2c1)C(N)=O (HELM PEPTIDE1{[Cc1cc(O)cc(C)c1C[C@H](N)C(=O)[*:2]].P.F.[O=C([C@@H](Cc1ccc2ccccc2c1)N[*:1])[*:2]].[am]}$$$$V2.0)",
    "measurement-target": "Delta-type opioid receptor (Homo sapiens, UniProt P41143)",
    "observed-value": 7.81
  },
  {
    "molecule": "Cc1cc(O)cc(C)c1C[C@H](N)C(=O)N1CCC[C@H]1C(=O)N[C@@H](Cc1ccccc1)C(=O)N[C@H](Cc1cccc2ccccc12)C(N)=O",
    "measurement-target": "Delta-type opioid receptor (Homo sapiens, UniProt P41143)",
    "observed-value": 8.45
  }
]

Now turn to the next molecule.
Problem: What does the data say about its pEC50? Entry: Cc1cc(O)cc(C)c1C[C@H](N)C(=O)N1CCC[C@H]1C(=O)N[C@@H](Cc1c[nH]c2ccccc12)C(=O)N[C@H](Cc1ccc2ccccc2c1)C(N)=O (HELM PEPTIDE1{[Cc1cc(O)cc(C)c1C[C@H](N)C(=O)[*:2]].P.W.[O=C([C@@H](Cc1ccc2ccccc2c1)N[*:1])[*:2]].[am]}$$$$V2.0)
Result: 7.53
